assay: Dye stabilization effect under daylight exposure (Test Examples 6-91); assay type: physicochemical; design: key: ◯: no change; Δ: almost no change; x: change; conditions: dye Red 227 (Acid Fuchsine D) 0.0001 wt %; photostabilizer 0.05 wt %; daylight exposure (80 MJ)
Assay endpoint: Appearance (visual determination)

c1cc(N2CCOCC2)nnc1N1CCOCC1 = ◯
Oc1nnccc1N1CCOCC1 [3-Hydroxy-4-morpholinopyridazine, 3-hydroxy-4-morpholinopyridazine] = ◯
CCCCC(CC)COC(=O)/C=C/c1ccc(OC)cc1 (stereo not shown) [p-Methoxycinnamate octyl, reference compound] = x
COc1ccc(C(=O)CC(=O)c2ccc(C(C)(C)C)cc2)cc1 [4-tert-Butyl-4′-methoxydibenzoylmethane, reference compound] = Δ
COc1cc(O)c(C(=O)c2ccccc2)cc1S(=O)(=O)[O-].[Na+] [reference compound] = Δ

Incoming: Item under review: OCCNc1ccc(NCCO)nn1 [3,6-Bis(2-hydroxyethylamino)pyridazine, 3,6-bis(2-hydroxyethylamino)pyridazine] . Reported Appearance (visual determination)?
Outgoing: ◯

Incoming: Item under review: Oc1cc(N2CCCCC2)cnn1 [3-Hydroxy-5-piperidinopyridazine, 3-hydroxy-5-piperidinopyridazine] . Reported Appearance (visual determination)?
Outgoing: ◯

Incoming: Item under review: Oc1nncc(N2CCCCC2)c1N1CCCCC1 [4,5-Dipiperidino-3-hydroxypyridazine] . Reported Appearance (visual determination)?
Outgoing: ◯

Incoming: Item under review: Oc1ccc(N2CCOCC2)nn1 [3-Hydroxy-6-morpholinopyridazine, 6-Morpholino-3-hydroxypyridazine] . Reported Appearance (visual determination)?
Outgoing: ◯

Incoming: Item under review: `OCCN(CCO)c1cnnc(O)c1` . Reported Appearance (visual determination)?
Outgoing: ◯

---

assay: Dye stabilization effect under daylight exposure (Test Examples 6-91); format: physicochemical; parameters: key: ◯: no change; Δ: almost no change; x: change; settings: dye Green 3 (Fast Green FCF) 0.001 wt %; photostabilizer 0.05 wt %; daylight exposure (80 MJ)
Assay endpoint: Appearance (visual determination)

Consider the worked cases shown below.
Oc1cc(N2CCCCC2)cnn1 [3-Hydroxy-5-piperidinopyridazine, 3-hydroxy-5-piperidinopyridazine] = ◯
c1cc(N2CCOCC2)nnc1N1CCOCC1 [3,6-Dimorpholinopyridazine] = ◯
Oc1nnccc1N1CCCCC1 [3-Hydroxy-4-piperidinopyridazine, 3-hydroxy-4-piperidinopyridazine] = ◯
CCCCC(CC)COC(=O)/C=C/c1ccc(OC)cc1 (stereo not shown) [p-Methoxycinnamate octyl, reference compound] = x
Oc1nncc(N2CCCCC2)c1N1CCCCC1 [4,5-Dipiperidino-3-hydroxypyridazine] = ◯

Incoming: Item under review: Oc1cc(N2CCOCC2)cnn1 [3-Hydroxy-5-morpholinopyridazine, 3-hydroxy-5-morpholinopyridazine] . Reported Appearance (visual determination)?
Outgoing: ◯

Incoming: Item under review: COc1ccc(C(=O)CC(=O)c2ccc(C(C)(C)C)cc2)cc1 [4-tert-Butyl-4′-methoxydibenzoylmethane, reference compound] . Reported Appearance (visual determination)?
Outgoing: Δ

---

experiment: Stabilization effect on perfume under daylight exposure (Test Examples 92 to 181); format: physicochemical; set-up: key: ◯: no change; Δ: almost no change; x: change; details: base perfume Woody; photostabilizer 0.1 wt %; daylight exposure (80 MJ)
Assay endpoint: odor determination

Consider the worked cases shown below.
Oc1cc(N2CCCCC2)cnn1 [3-Hydroxy-5-piperidinopyridazine, 3-hydroxy-5-piperidinopyridazine] = ◯
Oc1nnccc1N1CCCCC1 [3-Hydroxy-4-piperidinopyridazine, 3-hydroxy-4-piperidinopyridazine] = ◯
COc1ccc(C(=O)CC(=O)c2ccc(C(C)(C)C)cc2)cc1 [4-tert-Butyl-4′-methoxydibenzoylmethane, reference compound] = Δ
Oc1nncc(N2CCCCC2)c1N1CCCCC1 [4,5-Dipiperidino-3-hydroxypyridazine] = ◯

Let us examine a further case.
Incoming: Item under review: COc1ccc(C(=O)c2ccccc2)c(O)c1 [2-Hydroxy-4-methoxybenzophenone, reference compound] . Reported odor determination?
Outgoing: Δ

---

experiment: Stabilization effect on perfume under daylight exposure (Test Examples 92 to 181); type: physicochemical; set-up: key: ◯: no change; Δ: almost no change; x: change; conditions: synthetic perfume Linalyl acetate; photostabilizer 0.1 wt %; daylight exposure (80 MJ)
Assay endpoint: odor determination

Consider the worked cases shown below.
Oc1cc(N2CCOCC2)cnn1 [3-Hydroxy-5-morpholinopyridazine, 3-hydroxy-5-morpholinopyridazine] = ◯
COc1ccc(C(=O)CC(=O)c2ccc(C(C)(C)C)cc2)cc1 [4-tert-Butyl-4′-methoxydibenzoylmethane, reference compound] = Δ
Oc1cc(N2CCCCC2)cnn1 [3-Hydroxy-5-piperidinopyridazine, 3-hydroxy-5-piperidinopyridazine] = ◯
Oc1nncc(N2CCCCC2)c1N1CCCCC1 [4,5-Dipiperidino-3-hydroxypyridazine] = ◯

Let us examine a further case.
Incoming: Item under review: COc1ccc(C(=O)c2ccccc2)c(O)c1 [2-Hydroxy-4-methoxybenzophenone, reference compound] . Reported odor determination?
Outgoing: Δ

---

test: Stabilization effect on perfume under daylight exposure (Test Examples 92 to 181); format: physicochemical; set-up: key: ◯: no change; Δ: almost no change; x: change; conditions: synthetic perfume Citral; photostabilizer 0.1 wt %; daylight exposure (80 MJ)
Assay endpoint: odor determination

Consider the worked cases shown below.
Oc1nncc(N2CCCCC2)c1N1CCCCC1 [4,5-Dipiperidino-3-hydroxypyridazine] = ◯
Oc1cc(N2CCCCC2)cnn1 [3-Hydroxy-5-piperidinopyridazine, 3-hydroxy-5-piperidinopyridazine] = ◯
Oc1cc(N2CCOCC2)cnn1 [3-Hydroxy-5-morpholinopyridazine, 3-hydroxy-5-morpholinopyridazine] = ◯
COc1ccc(C(=O)c2ccccc2)c(O)c1 [2-Hydroxy-4-methoxybenzophenone, reference compound] = Δ

Incoming: Item under review: COc1ccc(C(=O)CC(=O)c2ccc(C(C)(C)C)cc2)cc1 [4-tert-Butyl-4′-methoxydibenzoylmethane, reference compound] . Reported odor determination?
Outgoing: Δ

---

test: Drug stabilization effect under daylight exposure (Test Examples 182 to 211); assay type: physicochemical; settings: drug dl-α-tocopherol 2-L-ascorbic acid phosphate diester potassium salt 0.01 wt %; photostabilizer 0.05 wt %; daylight exposure (80 MJ); liquid chromatography
Please respond with reported Remaining ratio (%) for every item in the list.
Provide a numeric answer, followed by its unit.

Incoming: Item under review: Oc1cc(N2CCCCC2)cnn1 [3-Hydroxy-5-piperidinopyridazine, 3-hydroxy-5-piperidinopyridazine] . Reported Remaining ratio (%)?
Outgoing: 98.7%

Incoming: Item under review: COc1ccc(C(=O)c2ccccc2)c(O)c1 [2-Hydroxy-4-methoxybenzophenone, reference compound] . Reported Remaining ratio (%)?
Outgoing: 95.4%

Incoming: Item under review: Oc1nncc(N2CCCCC2)c1N1CCCCC1 [4,5-Dipiperidino-3-hydroxypyridazine] . Reported Remaining ratio (%)?
Outgoing: 99.1%

Incoming: Item under review: Oc1cc(N2CCOCC2)cnn1 [3-Hydroxy-5-morpholinopyridazine, 3-hydroxy-5-morpholinopyridazine] . Reported Remaining ratio (%)?
Outgoing: 98.0%

Incoming: Item under review: COc1ccc(C(=O)CC(=O)c2ccc(C(C)(C)C)cc2)cc1 [4-tert-Butyl-4′-methoxydibenzoylmethane, reference compound] . Reported Remaining ratio (%)?
Outgoing: 94.5%

---

experiment: Stabilization effect on perfume under daylight exposure (Test Examples 92 to 181); type: physicochemical; set-up: key: ◯: no change; Δ: almost no change; x: change; details: natural perfume Jasmine oil; photostabilizer 0.05 wt %; daylight exposure (80 MJ)
Assay endpoint: odor determination

OCCN(CCO)c1cnnc(O)c1 = ◯
COc1ccc(C(=O)c2ccccc2)c(O)c1 [2-Hydroxy-4-methoxybenzophenone, reference compound] = Δ
Oc1nnccc1N1CCOCC1 [3-Hydroxy-4-morpholinopyridazine, 3-hydroxy-4-morpholinopyridazine] = ◯
Oc1cc(N2CCOCC2)cnn1 [3-Hydroxy-5-morpholinopyridazine, 3-hydroxy-5-morpholinopyridazine] = ◯

Let us examine a further case.
Incoming: Item under review: COc1ccc(C(=O)CC(=O)c2ccc(C(C)(C)C)cc2)cc1 [4-tert-Butyl-4′-methoxydibenzoylmethane, reference compound] . Reported odor determination?
Outgoing: Δ

---

experiment: Dye stabilization effect under daylight exposure (Test Examples 6-91); type: physicochemical; parameters: key: ◯: no change; Δ: almost no change; x: change; settings: dye Red 227 (Acid Fuchsine D) 0.0001 wt %; photostabilizer 0.05 wt %; daylight exposure (80 MJ)
Assay endpoint: Appearance (visual determination)

COc1ccc(C(=O)c2ccccc2)c(O)c1 [2-Hydroxy-4-methoxybenzophenone, reference compound] = Δ
Oc1nnccc1N1CCCCC1 [3-Hydroxy-4-piperidinopyridazine, 3-hydroxy-4-piperidinopyridazine] = ◯
Oc1cc(N2CCOCC2)cnn1 [3-Hydroxy-5-morpholinopyridazine, 3-hydroxy-5-morpholinopyridazine] = ◯
